Biological target: T1, CTLA-4 on human T lymphocytes (PBMC, CD3+ T cells) (human, UniProt P16410 36-223)
T1 sequence (looked up): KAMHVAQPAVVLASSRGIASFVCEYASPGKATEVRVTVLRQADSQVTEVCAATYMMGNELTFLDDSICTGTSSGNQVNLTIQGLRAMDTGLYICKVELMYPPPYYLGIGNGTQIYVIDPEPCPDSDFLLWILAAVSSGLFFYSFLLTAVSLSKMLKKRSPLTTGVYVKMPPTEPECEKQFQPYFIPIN
Assay: cell-based or functional assay
# maps each entry to its IL-2 secretion, pg/ml, at 10 ug/ml, N = 1
QUANTITY: IL-2 secretion, pg/ml, at 10 ug/ml, N = 1 (pg/mL)

| BINDER | TEST VALUE |
| --- | --- |
| 92C8B6 fully human CTLA-4 antibody (human IgG1, kappa) (antibody, V domains shown, also called mAb42; mAb042) VH: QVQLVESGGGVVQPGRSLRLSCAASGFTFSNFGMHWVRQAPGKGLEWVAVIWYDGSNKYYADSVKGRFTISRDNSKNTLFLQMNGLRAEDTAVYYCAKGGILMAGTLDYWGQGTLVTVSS VL: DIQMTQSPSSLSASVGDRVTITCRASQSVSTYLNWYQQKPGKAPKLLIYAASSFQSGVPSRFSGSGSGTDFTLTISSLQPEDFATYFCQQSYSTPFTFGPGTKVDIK | 6670 |
| 97A8D1 fully human CTLA-4 antibody (human IgG1, kappa) (antibody, V domains shown, also called mAb49; mAb049) VH: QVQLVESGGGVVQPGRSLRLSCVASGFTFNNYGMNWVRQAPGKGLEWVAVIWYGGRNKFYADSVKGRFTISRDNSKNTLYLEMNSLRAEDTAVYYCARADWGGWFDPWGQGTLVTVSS VL: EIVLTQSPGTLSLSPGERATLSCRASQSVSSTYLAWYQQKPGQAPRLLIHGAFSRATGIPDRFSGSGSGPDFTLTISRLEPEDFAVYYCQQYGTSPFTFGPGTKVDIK | 5080 |
| 40C4C6 fully human CTLA-4 antibody (human IgG1, kappa) (antibody, V domains shown, also called mAb09; mAb009) VH: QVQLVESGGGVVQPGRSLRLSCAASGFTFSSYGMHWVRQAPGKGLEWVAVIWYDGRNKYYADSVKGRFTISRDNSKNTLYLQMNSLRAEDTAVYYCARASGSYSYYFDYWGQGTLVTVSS VL: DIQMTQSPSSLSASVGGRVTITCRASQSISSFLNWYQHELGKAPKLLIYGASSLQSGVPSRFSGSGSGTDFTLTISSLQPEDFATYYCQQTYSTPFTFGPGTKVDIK | 5270 |
| 31C12F3 fully human CTLA-4 antibody (human IgG1, kappa) (antibody, V domains shown, also called mAb010) VH: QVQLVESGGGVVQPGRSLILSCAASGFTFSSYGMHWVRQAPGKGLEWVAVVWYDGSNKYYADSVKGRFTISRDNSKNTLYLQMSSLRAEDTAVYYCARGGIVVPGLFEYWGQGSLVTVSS VL: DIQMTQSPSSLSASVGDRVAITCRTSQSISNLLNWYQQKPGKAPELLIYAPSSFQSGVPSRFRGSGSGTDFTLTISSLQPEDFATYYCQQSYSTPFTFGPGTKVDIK | 5020 |
